# self-cleavage values compiled below
B1: HDV Ribozyme (parent)
chain: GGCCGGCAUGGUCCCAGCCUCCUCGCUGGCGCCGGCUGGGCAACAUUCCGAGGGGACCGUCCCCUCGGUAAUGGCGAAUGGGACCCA

- Variants of: B1
- method description: self-cleavage, relative activity (ratio to wild type); higher = more cleavage; co-transcriptional
recorded metric: self-cleavage

                              entry_sequence  assay_result
 0  GGCCGGCAUGGUCCCAGCCUCCUCGCUGGCGCCGGCUGGGCAACAUUCCGCGGGGACCGUCCCCUCGGUUAUGGCGAAUGGGACCCA [A51C A70U]          1.15
 1  UGCCGGCAUGGUCCCAGCCUCCUCGCUGGCGCCGGCUGGGCAACAUUCCGAGGGGACCGUCCCCUCGGUAAUGGCGAAUGGGACCAA [G1U C86A]          0.32
 2  GGCCGGUAUGGUCCCAGCCUCCUCGCUGGCGCCGGCUGGGCAACAUUCAGAGGGGACCGUCCCCUCGGUAAUGGCGAAUGGGACCCA [C7U C49A]         0.974
 3  GGCUGGCAUGGUCCCAGCCUCCUCGGUGGCGCCGGCUGGGCAACAUUCCGAGGGGACCGUCCCCUCGGUAAUGGCGAAUGGGACCCA [C4U C26G]          0.72
 4  GGCCGGCAUGGUCCCAGCCUCCUCGCUGGCGCCGGCCGGGCAACAUUCCGAGGGGACCAUCCCCUCGGUAAUGGCGAAUGGGACCCA [U37C G59A]           1.1
 5  GGCCGGCAUGGUCCCAGCCUCCUCGCUGGCUCCGGCUGGGCAACGUUCCGAGGGGACCGUCCCCUCGGUAAUGGCGAAUGGGACCCA [G31U A45G]         0.107
 6  GGCCGGCAUGGUCCCAGCCUCCUCGCUGUCGCCGGCUGGGCAACAUUCCGAGGGGACCGUCCCCUCGGUAAUGGCGAAUUGGACCCA [G29U G80U]        0.0885
 7  GGCCGGCAUGGUCCCAGCCGCCUCGCUGGCGCCGGCUGGGCAACAUUCCGAGGGGACCGUCCCCUCGGUACUGGCGAAUGGGACCCA [U20G A71C]             0
 8  GGCCGGCAUGGUCCCAGCCUCCUCGCUGGCGCCGGCUGGGCAACAUUCCGAGGGGACCGUCCCCUAGGUAAUGGCGAAUGGGACCCU [C66A A87U]         0.994
 9  GGCCUGCAUGGUCCCAGCCUCCUCGCUGGCGCCGGCUGGGCAACAUUCCGAGGGGACCGUCCCCUCGGUAAUGCCGAAUGGGACCCA [G5U G74C]        0.0475
10  GGCCGGCAUGGUCCCAGCCUCCUCGCUGGCCCCGGCUGGGCAACAUUCCGAGGGGGCCGUCCCCUCGGUAAUGGCGAAUGGGACCCA [G31C A56G]         0.166
11  GGCCGGCAUGGUCCCAGCCUCCUCGCUGGCGCCGGCUGGGCAACAUUCGGAGGGGACCGUCCCCUCGGUAAUGACGAAUGGGACCCA [C49G G74A]         0.132
12  GGCCGGCAUGGCCCCAGCCUCCUCGCUGGCGCCGGCUGGGCAACAUUCCGAGAGGACCGUCCCCUCGGUAAUGGCGAAUGGGACCCA [U12C G53A]         0.369
13  GGCCGGCAUGGUCCCAGCCUCCUCGCUGGCGCCGGCUGGGCAACUUUCCGAGGGGACCGUGCCCUCGGUAAUGGCGAAUGGGACCCA [A45U C61G]         0.815
14  GGCCGGCAUGGUCCCAGCCUCCUCGCUGGCGCCGGGUGGGCAACAUUCCGAGGGGACCGUCCCCUCUGUAAUGGCGAAUGGGACCCA [C36G G67U]        0.0361
15  GGCCGGCAUGGUCCCAGCCUACUCGCUGGCGCCGGCUGGGCAACAUUCCGAGGGGACCGUCCCCUCGGAAAUGGCGAAUGGGACCCA [C21A U69A]         0.175
16  GGCCGGCAUGGUCACAGCCUCCUCGCUGGCGCCGGCUGGGCAACAUUCCGAGGGGACCGUCCCCUCGGUAAUCGCGAAUGGGACCCA [C14A G73C]         0.104
17  GGCCGGCAUGGUCCCAGCCUCCUCGCUGGCGUCGGCUGGGCAACAUUGCGAGGGGACCGUCCCCUCGGUAAUGGCGAAUGGGACCCA [C32U C48G]          1.04
18  GGCCGGCAUGGUCCCAGCCUCCUCGCUGGCGCCGGCUGGGCAACAUUCCGAGGAGACCGUCCCCUCGCUAAUGGCGAAUGGGACCCA [G54A G68C]         0.173
19  GUCCGGCAUGGUCCCAGCCUCCUCGCUGGCGCCGGCUGGGCAGCAUUCCGAGGGGACCGUCCCCUCGGUAAUGGCGAAUGGGACCCA [G2U A43G]        0.0205
20  GGCCGGCAUCGUCCCAGCCUCCUCGCUGGCGCCGGCUGGGCAACAUGCCGAGGGGACCGUCCCCUCGGUAAUGGCGAAUGGGACCCA [G10C U47G]          1.35
21  GGCCGGCAUGGUUCCAGCCUCCUCGCUGGCGCCGGCUGGGCAACAUUUCGAGGGGACCGUCCCCUCGGUAAUGGCGAAUGGGACCCA [C13U C48U]         0.642
